Tested on: Plasmodium falciparum strain K1
Assay: In vitro IC50, 3H-hypoxanthine incorporation, P. falciparum K1
Format: cell-based
Conditions: chloroquine-resistant Plasmodium falciparum strain K1
Recorded endpoint: IC50 (nM)
Answers are plain numbers, in nM.

Endpoint output: IC50 of COc1ccc2c(c1)CCC1C2CC[C@@]2(C)C1CC[C@@H]2NCc1ccccc1O (stereo partly shown) . Value?
73

###

Tested on: P. falciparum strain 3D7-Netherlands
Assay: In vitro IC50, 3H-hypoxanthine incorporation, P. falciparum 3D7
Format: cell-based, Plasmodium falciparum
Details: Plasmodium falciparum; P. falciparum strain 3D7; read-out: IC50 [nM] P.f.(3D7)
Recorded endpoint: IC50 (nM)
Answers are plain numbers, in nM.

- COc1ccc2c(c1)CCC1C2CC[C@@]2(C)C1C[C@H](NCc1ccccc1O)[C@@H]2O (stereo partly shown): 227
- COc1ccc2c(c1)CCC1C2CC[C@@]2(C)C1CC[C@@H]2NCc1c(O)ccc2ccccc12 (stereo partly shown): 182
- COc1ccc2c(c1)CCC1C2CC[C@@]2(C)C1CC[C@@H]2NCc1ccccc1O (stereo partly shown): 50

Attention now turns to another entry.
Entry COc1ccc2c(c1)CCC1C2CC[C@@]2(C)C1C[C@@H](NCc1ccccc1O)[C@@H]2O (stereo partly shown) , system P. falciparum strain 3D7-Netherlands: what IC50 was measured?
58.5

###

Hi there, I'd appreciate the recorded IC50 for every entry that follows.
Test system: P. falciparum strain 3D7-Netherlands
Test: In vitro IC50, 3H-hypoxanthine incorporation, P. falciparum 3D7
Type: cell-based, Plasmodium falciparum
Conditions: Plasmodium falciparum; P. falciparum strain 3D7; read-out: IC50 [nM] P.f.(3D7)

- COc1ccc2c(c1)CCC1C2CC[C@@]2(C)C1C[C@H](NCc1cc(C(C)(C)C)cc(C(C)(C)C)c1O)[C@H]2O (stereo partly drawn) [Ref 1, reference compound]: 1610 nM
- COc1ccc2c(c1)CCC1C2CC[C@@]2(C)C1CC[C@H]2NCc1c(O)ccc2ccccc12 (stereo partly drawn) [Compound 17]: 72.8 nM
- COc1ccc2c(c1)CC[C@@H]1[C@@H]2CC[C@]2(C)[C@H](O)[C@H](N(C)c3cc4ccccc4cc3O)C[C@@H]12 [Compound 36]: 42.1 nM
- COc1ccc2c(c1)CCC1C2CC[C@@]2(C)C1CC[C@H]2NCc1ccccc1OC (stereo partly drawn) [Compound 5]: 879 nM
- COc1ccc2c(c1)CCC1C2CC[C@@]2(C)C1CC[C@@H]2NCc1cccc(O)c1 (stereo partly drawn) [Compound 20]: 733 nM

List IC50 for every entry below, keeping the order given.
1. COc1ccc2c(c1)CCC1C2CC[C@]2(C)C1C[C@@H](NCc1ccccc1O)[C@@H]2O (stereo partly drawn) [Compound 48]
2. COc1ccc2c(c1)CCC1C2CC[C@@]2(C)C1CC[C@H]2NCc1ccccc1O (stereo partly drawn) [Compound 2]
3. COc1ccc2c(c1)CCC1C2CC[C@]2(C)C1C[C@H](NCc1ccccc1O)[C@@H]2O (stereo partly drawn) [Compound 47]
4. COc1ccc2c(c1)CCC1C2CC[C@@]2(C)C1CC[C@H]2NCc1cc2ccccc2cc1O (stereo partly drawn) [Compound 41]

83.3 nM
7.4 nM
140 nM
4.4 nM

###

Assay: Cytotoxicity HeLa
Conditions: human, HeLa cells
Exercise: for every item that follows, state its recorded IC50.
Give bare numbers, in µg/mL.

For orientation, consider the following solved cases.
- COc1ccc2c(c1)CCC1C2CC[C@@]2(C)C1C[C@H](NCc1ccccc1O)[C@H]2O (some centres unmarked): 3.4
- COc1ccc2c(c1)CCC1C2CC[C@]2(C)C[C@H](NCc3ccccc3O)CC12 (some centres unmarked): 4.7
- COc1ccc2c(c1)CCC1C2CC[C@]2(C)C[C@@H](NCc3ccccc3O)CC12 (some centres unmarked): 4.4
- COc1ccc2c(c1)CCC1C2CC[C@@]2(C)C1CC[C@H]2NCc1ccccc1O (some centres unmarked): 3.1

Now, please, on to the next compound.
Look at this compound and give its reported IC50. COc1ccc2c(c1)CCC1C2CC[C@@]2(C)C1C[C@@H](NCc1ccccc1O)[C@@H]2O (some centres unmarked)
7.7
